Test system: NCI-H460 lung
Experiment: NCI-60 one-dose screen, 48 h (100 = growth as untreated, 0 = no growth, -100 = all killed)
Details: 10 µM
The panel holds about 83,000 compounds, 20% with a hit somewhere; the sample as a whole holds those more often.
Assay Metric: growth (%)
Hi! Could you send only the number? It should be in %, unit omitted.

The following compounds have reported results that may help.
COc1ccc(C(c2ccc(OCCN(C)C)cc2)c2cc3ccccc3c3ccccc23)cc1 (stereo unspecified)	-28.6
CCN(CC)CCOc1cccc2c1C(=O)c1ccccc1C2=O	101
CCOC(=O)C1C(C(=O)OCC)C2C(=O)C3C(C(=O)OCC)C(C(=O)OCC)C3C(=O)C12 (stereo unspecified)	103
Cc1ccc(C2NC(=S)N3C(c4ccc(C)cc4)NC(=S)N23)cc1 (stereo unspecified)	9.7
COC(=O)c1cc2oc(/C=C3/SC(=S)N(N)C3=O)cc2n1Cc1ccccc1	40.5
COc1cc(C(=O)/C=C/c2c[nH]c3ccccc23)cc(OC)c1OC	8.04
O=C(Nc1ccc(F)cc1)c1cc2ccccc2cc1O	80.5
C=CCn1c(SCC(=O)Nc2ccc(C(=O)/C=C/c3ccc(Cl)cc3)cc2)nnc1-c1cc(-c2ccccc2)nc2ccccc12	98.6
COc1ccc(/C=C2/SC(=S)NC2=O)c(OC)c1OC	90.3
CCc1ccc(C2=NN(c3ccc(S(C)(=O)=O)cc3)C(=O)CC2)cc1	10.5

Input line: Retrieve growth measured for `CCN(CCCNc1cc2c(c(N)c1S(=O)(=O)O)C(=O)c1ccccc1C2=O)c1ccccc1` and print it.
Output line: 102

Input line: Retrieve growth measured for `Cc1ccc(C)c(COc2cc(NC(=O)c3ccc4c(c3)OCO4)ccc2N(C)S(C)(=O)=O)c1` and print it.
Output line: -9.36

Input line: Retrieve growth measured for `O=C(CSc1nnc(-c2cccnc2SCc2ccccc2)o1)Nc1nc(Cl)cc(Cl)n1` and print it.
Output line: 105

Input line: Retrieve growth measured for `CCOC(=O)c1cc(C(=O)c2ccc(OC)c(OC)c2)n2ccncc12` and print it.
Output line: 106

Input line: Retrieve growth measured for `Cc1c2c(nn1C(=O)c1nn(-c3ccc(Cl)cc3)cc1O)-c1ccccc1CC2` and print it.
Output line: 9.48

Input line: Retrieve growth measured for `c1ccc2c(c1)Cc1ccccc1N2CCN1CCCCC1` and print it.
Output line: 107
